# Assay System: C-Raf FL (full length CRAF with Y340E and Y341E activating mutations, co-expressed with h14-3-3 zeta) (Homo sapiens (Human), UniProt P04049, Y340E/Y341E)
# Sequence (P04049 whole entry Y340E/Y341E): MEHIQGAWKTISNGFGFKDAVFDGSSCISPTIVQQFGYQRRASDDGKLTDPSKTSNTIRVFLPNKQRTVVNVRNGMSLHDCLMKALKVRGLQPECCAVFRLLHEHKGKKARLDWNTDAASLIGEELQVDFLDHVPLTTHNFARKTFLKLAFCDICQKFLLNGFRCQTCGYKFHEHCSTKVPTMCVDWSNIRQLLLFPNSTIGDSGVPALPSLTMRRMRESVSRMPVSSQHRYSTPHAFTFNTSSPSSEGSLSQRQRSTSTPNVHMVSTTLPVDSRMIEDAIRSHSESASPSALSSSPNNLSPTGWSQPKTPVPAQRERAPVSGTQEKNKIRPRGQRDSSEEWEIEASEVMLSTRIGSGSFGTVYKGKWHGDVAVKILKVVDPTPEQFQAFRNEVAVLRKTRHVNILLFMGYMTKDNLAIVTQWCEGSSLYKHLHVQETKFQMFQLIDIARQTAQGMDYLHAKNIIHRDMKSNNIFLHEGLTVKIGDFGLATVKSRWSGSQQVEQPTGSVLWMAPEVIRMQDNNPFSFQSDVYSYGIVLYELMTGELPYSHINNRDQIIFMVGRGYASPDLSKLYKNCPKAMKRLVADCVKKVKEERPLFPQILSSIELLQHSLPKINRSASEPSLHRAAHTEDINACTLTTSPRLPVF
# Sequence (P63104 whole entry partner): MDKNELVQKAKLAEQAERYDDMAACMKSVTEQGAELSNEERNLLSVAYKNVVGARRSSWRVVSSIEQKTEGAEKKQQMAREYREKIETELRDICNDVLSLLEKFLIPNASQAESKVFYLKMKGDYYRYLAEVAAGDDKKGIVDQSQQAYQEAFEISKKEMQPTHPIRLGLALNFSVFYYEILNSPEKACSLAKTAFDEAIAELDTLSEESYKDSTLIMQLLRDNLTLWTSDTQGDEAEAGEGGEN
# Assay Remarks: In vitro Raf activity determination, AlphaScreen p-MEK readout, c-Raf (C-Raf FL)
# Condition Context: c-Raf approximately 4 nM, ATP 1 μM, pre-incubation 60 minutes, reaction 1 hour
pIC50: −log10 of the molar value.
Endpoint Name: pIC50

{"columns": ["Compound", "Value Reported"],
 "data": [
  ["CCOC(=O)c1c2n(c3cc(-c4cc(NC(=O)c5ccnc(C(F)(F)F)c5)ccc4C)ccc3c1=O)CCOC2", 10.35],
  ["Cc1ncc(NC(=O)c2cccc(C(F)(F)F)c2)cc1-c1cnc2c(c1)N1CCOC[C@H]1C[C@@H]2O (racemic) [Example 104]", 10.36],
  ["CCN1C(=O)[C@@H]2COCC[C@H]2c2cc(-c3cc(NC(=O)c4cccc(C(F)(F)F)c4F)cnc3C)cnc21", 10.00],
  ["CCN1C(=O)C2(F)COCC[C@@H]2c2cc(-c3cc(NC(=O)c4ccnc(C(C)(F)F)c4)ccc3C)cnc21 (stereo partly shown)", 9.30],
  ["Cc1ccc(NC(=O)c2ccnc(C(F)(F)F)c2)cc1-c1cnc2c(c1)C1CCOCC1OC(=O)N2CCO (stereo not shown)", 8.51],
  ["Cc1ncc(NC(=O)c2ccnc(C(C)(F)F)c2)cc1-c1ccc2c(c1)N1CCOC[C@H]1[C@](F)(CO)C2", 9.00],
  ["Cc1ccc(NC(=O)c2ccnc(C(C)(F)F)c2)cc1-c1cc(F)c2c(c1)N1CCOC[C@H]1[C@](F)(CO)C2", 9.22]
]}

* * *

// reported pIC50 for each item listed
# Assay System: C-Raf FL (full length CRAF with Y340E and Y341E activating mutations, co-expressed with h14-3-3 zeta) (Homo sapiens (Human), UniProt P04049, Y340E/Y341E)
# Assay Remarks: In vitro Raf activity determination, AlphaScreen p-MEK readout, c-Raf (C-Raf FL)
# Condition Context: c-Raf approximately 4 nM, ATP 1 μM, pre-incubation 60 minutes, reaction 1 hour
pIC50: −log10 of the molar value.
Endpoint Name: pIC50

{"columns": ["Compound", "Value Reported"],
 "data": [
  ["Cc1ccc(NC(=O)c2ccnc(C(F)(F)F)c2)cc1-c1cc2c(nn1)OC(C)(C)C1COCCN21 (racemic)", 10.24],
  ["Cc1ccc(NC(=O)c2ccnc(C(C)(F)F)c2)cc1-c1cnc2c(c1)N1CCOC[C@H]1C(F)(F)[C@H]2O", 9.37],
  ["Cc1ccc(NC(=O)c2ccnc(C(C)(C)C#N)c2)cc1-c1ccc2c(c1)N1CCOC[C@@H]1[C@](F)(CO)C2", 9.52],
  ["Cc1ncc(NC(=O)c2ccnc(C(C)(F)F)c2)cc1-c1ccc2c(c1)N1CCOC[C@@H]1[C@](C)(C#N)C2", 9.30]
]}

* * *

# Assay System: C-Raf FL (full length CRAF with Y340E and Y341E activating mutations, co-expressed with h14-3-3 zeta) (Homo sapiens (Human), UniProt P04049, Y340E/Y341E)
# Assay Remarks: In vitro Raf activity determination, AlphaScreen p-MEK readout, c-Raf (C-Raf FL)
# Condition Context: c-Raf approximately 4 nM, ATP 1 μM, pre-incubation 60 minutes, reaction 1 hour
pIC50: −log10 of the molar value.

{"columns": ["Molecule", "pIC50"],
 "data": [
  ["Cc1ccc(NC(=O)c2ccnc(C(F)(F)F)c2)cc1-c1cnc2c(c1)N1CCOCC1CC2(F)F (racemic) [Example 111]", 11.27],
  ["Cc1ccc(NC(=O)c2ccnc(C(C)(F)F)c2)cc1-c1cnc2c(c1)N1CCOCC1CC(=O)N2 (racemic) [Example 124]", 11.03],
  ["Cc1ccc(NC(=O)c2ccnc(C(C)(F)F)c2)cc1-c1cnc2c(c1)N1CCOC[C@H]1[C@](C#N)(CF)C2 [Example 518]", 10.00],
  ["Cc1ccc(NC(=O)c2ccnc(C(C)(F)F)c2)cc1-c1cnc2c(c1)N1CCOC[C@@H]1C(F)(F)[C@@H]2O [Example 165]", 9.21],
  ["Cc1ccc(NC(=O)c2cncc(C(F)(F)F)c2)cc1-c1cnc2c(c1)N1CCOC[C@H]1C[C@@H]2O (racemic) [Example 144]", 11.64],
  ["Cc1ccc(NC(=O)c2ccnc(C(C)(F)F)c2)cc1-c1cc2c(nn1)OC(C)(C)C1COCCN21 (racemic) [Example 136]", 10.74],
  ["Cc1ccc(NC(=O)c2ccnc(C(C)(F)F)c2)cc1-c1ccc2c(c1)N1CCOCC1C(CO)C2 (racemic) [Example 60]", 10.72]
]}

* * *

# Assay System: C-Raf FL (full length CRAF with Y340E and Y341E activating mutations, co-expressed with h14-3-3 zeta) (Homo sapiens (Human), UniProt P04049, Y340E/Y341E)
# Assay Remarks: In vitro Raf activity determination, AlphaScreen p-MEK readout, c-Raf (C-Raf FL)
# Type: biochemical
# Condition Context: c-Raf approximately 4 nM, ATP 1 μM, pre-incubation 60 minutes, reaction 1 hour
// reported log10 IC50 for each item listed
Endpoint Name: log10 IC50 (log10 of the value in nM)

{"columns": ["Molecule", "log10 IC50"],
 "data": [
  ["Cc1ccc(NC(=O)c2ccnc(C(C)(F)F)c2)cc1-c1cnc2c(c1)N1CCOC[C@@H]1[C@@H](CO)C2 [Example 118]", -2.34],
  ["CCN1C(=O)[C@H]2COCC[C@@H]2c2cc(-c3cc(NC(=O)c4cccc(C(F)(F)F)c4F)cnc3C)cnc21 [Example 255]", -0.10],
  ["Cc1ccc(NC(=O)c2ccnc(C(C)(F)F)c2)cc1-c1cnc2c(c1)N1CCOC[C@H]1C[C@@]2(O)C(F)(F)F (racemic) [Example 169]", -1.49],
  ["Cc1ccc(NC(=O)c2ccnc(C(C)(F)F)c2)cc1-c1ccc2c(c1)N1CCOC[C@H]1C(CO)(CO)C2 (single isomer, unassigned) [Example 52]", -0.80],
  ["CCN1C(=O)C[C@@H]2COCCN2c2cc(-c3cc(NC(=O)c4ccnc(C(F)(F)F)c4F)ccc3C)cnc21 [Example 327]", -0.52],
  ["CCN1C(=O)C2COCCN2c2cc(-c3cc(NC(=O)c4ccnc(C(F)(F)F)c4)ccc3C)cnc21 (racemic) [Example 113]", -2.08],
  ["Cc1ccc(NC(=O)c2ccnc(C(C)(F)F)c2)cc1-c1ccc2c(c1)N1CCOC[C@H]1[C@](C)(N)C2 (racemic) [Example 92]", -0.21],
  ["Cc1ccc(NC(=O)c2ccnc(C(F)(F)F)c2)cc1-c1ccc2c(c1)N1CCOC[C@H]1[C@](F)(CO)C2 [Example 382]", -0.70],
  ["Cc1ccc(NC(=O)c2ccnc(C(F)(F)F)c2)cc1-c1cnc2c(c1)[C@@H]1CCOC[C@H]1C(=O)N2C(C)C [Example 261]", -0.70],
  ["Cc1ncc(NC(=O)c2cccc(C(F)(F)F)c2)cc1-c1cnc2c(c1)N1CCOC[C@@H]1[C@@H](CO)C2 [Example 121]", -2.02],
  ["Cc1ncc(NC(=O)c2cccc(C(F)(F)F)c2)cc1-c1cnc2c(c1)C1(C)CCOCCC1C(=O)N2CCO (single isomer, unassigned) [Example 359]", -0.52],
  ["CNC(=O)C1Cc2ccc(-c3cc(NC(=O)c4ccnc(C(C)(F)F)c4)ccc3C)cc2N2CCOCC12 (racemic) [Example 67]", -0.89],
  ["Cc1ncc(NC(=O)c2ccnc(C(F)(F)F)c2)cc1-c1ccc2c(c1)N1CCOC[C@H]1[C@](F)(CF)C2 [Example 471]", 0.08]
]}

* * *

# Assay System: C-Raf FL (full length CRAF with Y340E and Y341E activating mutations, co-expressed with h14-3-3 zeta) (Homo sapiens (Human), UniProt P04049, Y340E/Y341E)
# Assay Remarks: In vitro Raf activity determination, AlphaScreen p-MEK readout, c-Raf (C-Raf FL)
# Condition Context: c-Raf approximately 4 nM, ATP 1 μM, pre-incubation 60 minutes, reaction 1 hour
pIC50: −log10 of the molar value.
# cutoff 10 applies to pIC50; >= gives Met, < gives Not met

{"columns": ["Molecule", "Label Value"],
 "data": [
  ["Cc1ncc(NC(=O)c2ccnc(C(C)(F)F)c2)cc1-c1ccc2c(c1)N1CCOCC[C@H]1C[C@H]2O [Example 98]", "Not met"],
  ["Cc1ccc(NC(=O)c2ccnc(C(F)(F)F)c2)cc1-c1ccc2c(c1)N1CCOC[C@H]1[C@](F)(CF)C2 [Example 472]", "Not met"],
  ["Cc1ncc(NC(=O)c2cccc(C(F)(F)F)c2)cc1-c1ccc2c(c1)N1CCOCC1C(CO)(CO)C2 (racemic) [Example 51]", "Met"],
  ["Cc1ccc(NC(=O)c2ccnc(C(C)(F)F)c2)cc1-c1cnc2c(c1)N1CCOCC1C(CS(C)(=O)=O)C2 (stereo not shown) [Example 99]", "Met"],
  ["Cc1ccc(NC(=O)c2ccnc(C(F)(F)F)c2)cc1-c1cnc2c(c1)N1CCOCC1C(=O)N2 (racemic) [Example 112]", "Met"],
  ["Cc1ccc(NC(=O)c2ccnc(C(C)(F)F)c2)cc1-c1ccc2c(c1)N1CCOC[C@H]1C1(COC1)C2 [Example 57]", "Met"]
]}
